# maps each entry to its koff
Biological target: T1, human immunoglobulin E (hIgE) (human, UniProt P01854-1 1-428)
T1 construct: also called human IgE; Native IgE (Abcam)
T1 sequence (P01854 whole entry): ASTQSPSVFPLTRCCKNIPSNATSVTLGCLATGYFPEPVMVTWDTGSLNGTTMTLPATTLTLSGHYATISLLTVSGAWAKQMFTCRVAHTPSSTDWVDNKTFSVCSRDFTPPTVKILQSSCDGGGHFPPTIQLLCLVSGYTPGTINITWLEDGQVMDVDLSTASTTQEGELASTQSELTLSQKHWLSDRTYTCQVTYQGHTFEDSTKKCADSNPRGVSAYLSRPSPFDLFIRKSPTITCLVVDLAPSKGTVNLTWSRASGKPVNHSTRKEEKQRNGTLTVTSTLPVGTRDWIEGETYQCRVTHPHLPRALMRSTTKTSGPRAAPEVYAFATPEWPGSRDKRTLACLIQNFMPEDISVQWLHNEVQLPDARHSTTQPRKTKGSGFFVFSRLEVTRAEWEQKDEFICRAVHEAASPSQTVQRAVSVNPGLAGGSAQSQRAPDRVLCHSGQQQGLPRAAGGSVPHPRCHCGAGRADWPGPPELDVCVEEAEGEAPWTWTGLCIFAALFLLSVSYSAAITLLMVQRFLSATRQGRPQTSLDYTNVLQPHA
Test: SPR (Biacore), pH 7.4
recorded_endpoint: koff (s⁻¹)

binder="Oma VH15W100b - VL3 (antibody, V domains shown) VH: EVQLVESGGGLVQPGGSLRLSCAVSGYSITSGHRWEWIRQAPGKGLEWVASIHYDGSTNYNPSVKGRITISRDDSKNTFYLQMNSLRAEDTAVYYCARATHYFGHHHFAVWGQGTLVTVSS VL: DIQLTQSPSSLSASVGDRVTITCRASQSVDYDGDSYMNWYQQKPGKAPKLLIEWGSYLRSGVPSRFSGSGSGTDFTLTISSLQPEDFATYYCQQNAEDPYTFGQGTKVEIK" endpoint_value=0.00103
binder="OmaVH15G55H - VL3S31H (antibody, V domains shown) VH: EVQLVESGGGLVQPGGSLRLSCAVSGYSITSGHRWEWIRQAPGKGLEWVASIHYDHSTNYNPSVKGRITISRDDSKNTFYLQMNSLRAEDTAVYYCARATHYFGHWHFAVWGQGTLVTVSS VL: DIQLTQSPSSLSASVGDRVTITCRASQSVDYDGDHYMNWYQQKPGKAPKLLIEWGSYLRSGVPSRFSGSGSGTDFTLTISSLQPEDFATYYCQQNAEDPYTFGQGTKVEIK" endpoint_value=0.000402
binder="OMA VH15 - VL3S31H (antibody, V domains shown) VH: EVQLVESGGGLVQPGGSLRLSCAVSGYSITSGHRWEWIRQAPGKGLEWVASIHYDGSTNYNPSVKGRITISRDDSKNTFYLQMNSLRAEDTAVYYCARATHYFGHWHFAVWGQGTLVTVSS VL: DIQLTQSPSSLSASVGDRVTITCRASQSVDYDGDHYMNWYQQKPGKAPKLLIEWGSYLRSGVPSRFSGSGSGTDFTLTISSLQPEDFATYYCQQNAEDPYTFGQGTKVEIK" endpoint_value=0.000166

Origin of the recorded values: patent US20220177604A1
